What pIC50 was measured for each of the following?
Study system: PIM3 (Homo sapiens, UniProt Q86V86)
Assay explanation: KinaseGlo Pim3 ATP depletion assay
Assay type: biochemical
One number for each entry, as −log10 of the molar value.

Take a look at these entries with their results.
[[record]]
molecule = "C[C@@H]1O[C@H](c2ccncc2NC(=O)c2nc(-c3ccccc3)cnc2N)C[C@H](O)[C@@]1(C)O"
study_system = "PIM3 (Homo sapiens, UniProt Q86V86)"
reported_property = "pIC50"
measurement = 7.82

[[record]]
molecule = "CC(C)NC(=O)c1ccc(F)c(-c2ccc(N)c(C(=O)Nc3cnccc3[C@@H]3C[C@@H](O)[C@](C)(O)[C@@H](C)O3)n2)c1F"
study_system = "PIM3 (Homo sapiens, UniProt Q86V86)"
reported_property = "pIC50"
measurement = 8.52

[[record]]
molecule = "C[C@H]1O[C@@H](c2ccncc2NC(=O)c2csc(-c3c(F)cccc3F)n2)C[C@@H](N)[C@@H]1O"
study_system = "PIM3 (Homo sapiens, UniProt Q86V86)"
reported_property = "pIC50"
measurement = 7.85

[[record]]
molecule = "C[C@H]1C[C@@H](O)C[C@@H](c2ccncc2NC(=O)c2csc(-c3c(F)cccc3F)n2)O1 (stereo in doubt)"
study_system = "PIM3 (Homo sapiens, UniProt Q86V86)"
reported_property = "pIC50"
measurement = 7.72

[[record]]
molecule = "NC(=O)[C@H]1O[C@@H](c2ccncc2NC(=O)c2ccc(F)c(-c3c(F)cccc3F)n2)C[C@@H](O)[C@@H]1O"
study_system = "PIM3 (Homo sapiens, UniProt Q86V86)"
reported_property = "pIC50"
measurement = 7.03


q: Write down the reported pIC50 of NC(=O)C[C@H]1O[C@@H](c2ccncc2NC(=O)c2ccc(F)c(-c3c(F)cccc3F)n2)C[C@@H](O)[C@@H]1O [Example 159] , test system: PIM3 (Homo sapiens, UniProt Q86V86).
a: 6.05

---

Study system: PDGFRaV561D kinase (Homo sapiens, UniProt P16234, V561D)
Sequence (P16234 24-1089 V561D): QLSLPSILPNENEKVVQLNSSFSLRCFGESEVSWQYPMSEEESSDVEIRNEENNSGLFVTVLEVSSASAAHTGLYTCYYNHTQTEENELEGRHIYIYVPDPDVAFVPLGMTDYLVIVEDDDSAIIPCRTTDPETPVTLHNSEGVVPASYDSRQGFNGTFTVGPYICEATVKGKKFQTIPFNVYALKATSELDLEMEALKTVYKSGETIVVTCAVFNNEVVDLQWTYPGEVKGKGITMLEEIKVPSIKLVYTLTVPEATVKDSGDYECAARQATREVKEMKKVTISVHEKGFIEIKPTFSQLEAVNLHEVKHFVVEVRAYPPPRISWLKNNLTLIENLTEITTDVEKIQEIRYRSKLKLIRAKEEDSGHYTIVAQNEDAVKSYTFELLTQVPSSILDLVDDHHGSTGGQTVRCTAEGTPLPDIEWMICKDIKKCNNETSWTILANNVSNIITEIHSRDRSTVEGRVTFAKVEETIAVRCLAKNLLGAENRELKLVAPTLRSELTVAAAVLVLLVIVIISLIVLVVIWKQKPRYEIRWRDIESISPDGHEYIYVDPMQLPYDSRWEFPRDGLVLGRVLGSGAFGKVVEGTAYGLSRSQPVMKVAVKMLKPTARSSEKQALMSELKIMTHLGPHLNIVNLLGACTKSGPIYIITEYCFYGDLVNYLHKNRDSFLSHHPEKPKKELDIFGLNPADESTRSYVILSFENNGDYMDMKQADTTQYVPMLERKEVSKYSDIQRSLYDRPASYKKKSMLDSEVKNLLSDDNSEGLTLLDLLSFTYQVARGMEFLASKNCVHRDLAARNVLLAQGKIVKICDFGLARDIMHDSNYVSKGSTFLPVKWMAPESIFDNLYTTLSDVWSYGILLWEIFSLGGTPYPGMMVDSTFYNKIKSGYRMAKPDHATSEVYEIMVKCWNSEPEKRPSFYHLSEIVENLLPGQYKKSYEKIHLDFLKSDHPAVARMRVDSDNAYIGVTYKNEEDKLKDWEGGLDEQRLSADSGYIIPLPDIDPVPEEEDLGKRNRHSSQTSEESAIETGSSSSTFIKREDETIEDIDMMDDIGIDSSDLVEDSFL
Assay explanation: PDGFRaV561D kinase inhibition assay (LanthaScreen TR-FRET)
Experimental setup: read-out: PDGFRa IC50
Reported property: IC50

Items follow; give IC50 for each.
1. CC(C)[C@H]1C[C@@H](N)C[C@@H](c2ccncc2NC(=O)c2nc(-c3ccccc3)cnc2N)O1 [Example 292]
2. CC[C@]1(O)[C@H](N)C[C@H](c2ccncc2NC(=O)c2nc(-c3ccccc3)cnc2N)O[C@@H]1C [Example 187]
3. CCC[C@H]1O[C@@H](c2ccncc2NC(=O)c2nc(-c3ccccc3)cnc2N)C[C@@H](O)[C@@H]1O [Example 340]
4. CC(C)[C@H]1O[C@@H](c2ccncc2NC(=O)c2nc(-c3ccccc3)cnc2N)C[C@@H](N)[C@@H]1O [Example 356]
5. Nc1ncc(-c2ccccc2)nc1C(=O)Nc1cnccc1[C@@H]1C[C@H](N)[C@@H]2CCC[C@@H]2O1 [Example 233]
6. CC(C)[C@@H]1O[C@H](c2ccncc2NC(=O)c2nc(-c3ccccc3)cnc2N)C[C@H](N)[C@H]1O [Example 240]
7. C[C@]1(O)[C@H](N)C[C@H](c2ccncc2NC(=O)c2nc(-c3ccccc3)cnc2N)OC12CC2 [Example 353]

a:
1: 4.4 µM; 2: 0.025 µM; 3: 0.81 µM; 4: 0.053 µM; 5: 0.94 µM; 6: 7.3 µM; 7: 0.76 µM
